All figures here come from patent EP4752156A1.

# study-system: GST-ZZS01 fusion protein (UniProt P08515 1-218 = GST)
# Sequence (P08515 1-218, tags or fused parts left off): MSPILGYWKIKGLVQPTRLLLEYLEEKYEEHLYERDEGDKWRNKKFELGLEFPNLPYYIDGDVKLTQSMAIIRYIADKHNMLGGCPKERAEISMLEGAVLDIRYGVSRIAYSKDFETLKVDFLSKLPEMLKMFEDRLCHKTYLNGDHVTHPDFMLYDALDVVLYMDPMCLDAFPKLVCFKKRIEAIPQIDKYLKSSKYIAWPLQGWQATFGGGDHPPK
# protocol-summary: Biacore SPR as in Example 3.3
experimental-readout: Kd (nM)
Answers are plain numbers, in nM.

// solved cases for Kd follow
* 18 (antibody, V domains shown) VH: QVQLVESGGGLVKPGGSLRLSCAASGFTFSASYMSWIRQAPGKGLEWVSYISSSSTYTNYADSVKGRFTISRDNAKNSLYLQMDSLRAEDTAMYFCAREGSPGGQGTLVTVSS VL: DVVMTQSPLSLPVTLGQSASISCRSSQSLVYSDGDTFLSWFQQRPGQSPRRLIYMVSNRDPGVPDRFSGSGSGTDFTLKISRVEAEDVGIYYCMQGTNWPFTFGPGTRVDIKR | 3.46
* h11 (antibody, V domains shown) VH: QVQLVESGGGLVKPGGSLRLSCEASGFTFSAHYMSWIRQAPGKGLEYVSYISGSSSYTNYVDSVKGRFTISRDNAKNSLYLQMNSLRVEDTAVYYCAREGSPGGQGTLVTVSS VL: DVVLTQSPLSLPVTLGQPASISCRSSQSLVDSDGNTYLSWFHQRPGQSPRRLIYKVSDRDSGVPDRFSGSGSGTDFTLKISRVEAEDVGVYYCMEGTHWPFTFGPGTKVDIKR | 0.652
* h19 (antibody, V domains shown) VH: QVQLVESGGGLVKPGGSLRLSCAASGFSFSDSYMSWIRQAPGKGLEWVSYISSSSSYTNYADSVKGRFTISRDNAKNSLYLQMNSLRVEDTAVYYCAREGSPGGQGTLVTVSS VL: DVVLTQSPLSLPVTLGQPASISCRSSQSLVDSDGNTYLSWFQQRPGQSPRRLIYRVSNRDSGVPDRFSGSGSGTDFTLKISRVEAEDVGVYYCMQGTHWPFTFGPGTKVDIKR | 3.53
* h12 (antibody, V domains shown) VH: QVQLVESGGGLVKPGGSLRLSCAASGFSFSDSYMSWLRQAPGKGLEWVSYISSSSSYTKYTDSVKGRFTISRDNAKNSLYLQMSSLRAEDTAVYYCAREGSPGGQGTLVTVSS VL: DVVMTQSPLSLPVTLGQPASFSCRSSQSLVFTDGNTFLSWFLQRPGQSPRRLIYRVSNRDPGVPDRFSGSGSGTDFTLKISRVEAEDVGVYYCMQGTQWPFTFGPGTKVDIKR | 6.03
* h14 (antibody, V domains shown) VH: QVQLVESGGGLVEPGGSLRLSCAASGFTFSDHYMSWIRQAPGRGLEWVSYISNSGGYTNYADSVKGRFTISRDNAKNSLYLQMNSLRAEDTAVYYCAREGSPGGQGTLVTVSS VL: DVVMTQSPLSLPVTLGQPASMSCRSSQSLVDSDGNTYLSWFQQRPGQSPRRLIYKVSDRDSGVPDRFSGGGSGTDFTLKISRVEAEDVGIYYCMQGTRWPFTFGPGTKVDIKR | 4.39
* h21 (antibody, V domains shown) VH: QVQLVESGGGLVKPGGSLRLSCAASGFTFSAHYMSWIRQAPGKGLEWVSYISPSSSYTVYADSVKGRFTISRDNAKNSLFLQMNSLRAEDTAVYYCAREGSPGGQGTLVTVSS VL: DVVMTQSPLSLPVTLGQPASISCRSTQSLVDSDGNTYLSWFQQRPGQSPRRLIYKVSDRDSGVPDRFSGSGSGTDFTLKISRVEAEDIGIYYCMQGTHWPFTFGPGTKVDIKR | 1.48
* h15 (antibody, V domains shown) VH: QVQLVESGGGLVRPGGSLRLSCAASGFTFSDHYMSWIRQAPGKGLEWVSYISGSSSYTKYADSVKGRFTISRDNAKNSLYLQMNSLRAEDTAVYYCAREGSPGGQGTLVTVSS VL: DVVLTQSPLSLPVTLGQPASISCRSSQSLVFSDGNTFLAWFQQRPGQSPRRLIYRISNRDSGVPDRFSGSGSDTDFTLKISRVEAEDVGVYYCMQGTQWPFTFGPGTKVDIKR | 5.78
* h2 (antibody, V domains shown) VH: QVQLVESGGGLVKPGGSLRLSCAASGFTFSAHYMSWIRQAPGKGLEWVSYISPSSSYTVYADSVKGRFTISRDNAKNSLFLQMNSLRAEDTAVYYCAREGSPGGQGTLVTVSS VL: DVVMTQSPLSLPVTLGQPASISCRPSQSLVDSDGNTYLSWFQQRPGQSPRRLIYKVSDRDSGVPDRFSGSGSVTDFTLKISRVEAEDVGIYYCMQGTHWPFTFGPGTKVDIKR | 5.24

Can you give me Kd for all of these, one by one?
1. h20 (antibody, V domains shown) VH: QVQLVESGGGLVKPGGSLRLSCAASGFSFSDSYMSWIRQAPGKGLEWVSYISSSSSYTNYVDSVKGRFTISRDNAKNSLYLQMNSLRVEDTAVYYCAREGSPGGQGTLVTVSS VL: DVVMTQSPLSLPVTLGQPASISCRSSQSLVDSDGNTYLSWFQQRPGQSPRRLIYRVSNRDSGVPDRFSGSGSGTDFTLKISRVEAEDVGVYYCMQGTHWPFTFGPGTKVDIRR
2. h5 (antibody, V domains shown) VH: QVQLVESGGGLVKPGGSLRLSCAASGFTFSDHYMSWIRQAPGKGLEWVAYISSSSTYTKYGDSVKGRFTISRDNAKNSLYLQMNSLRAEDTAVYYCAREGSPGGQGTLVTVSS VL: DVVMTQSPLSLPVTLGQPASISCRSSQSLVFSDGNTYLSWFQQRPGQSPRRLIFKVSDRDSGVPDRFSGSGSGTDFTLKISRMEAEDVGVYYCMQGTQWPFTFGPGTKVDIKR

(A)
[2, 10.1]
